Numbers sourced from the supplement of paper PMC10567573.

B1: ADD1 (parent)
chain: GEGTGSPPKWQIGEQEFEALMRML

# Variants of: B1
# protocol-description: protein stability index of a GFP-peptide fusion (GPS, HEK-293T) (PSI 1-6); higher = more stable;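 further: lentivirally expressed fusions sorted by FACS into six bins by GFP to DsRed ratio, PSI derived from sequencing read proportions per bin multiplied by bin number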
# condition-summary: c terminus: a fixed tail appended
I'd appreciate it if you could supply protein stability index values for the items below.
Please reply with the number alone, leaving off any unit.

Sample E18T ; protein stability index observed: 3

Sample G5V ; protein stability index observed: 3.09

Sample R22G ; protein stability index observed: 3.09

Sample M23Y ; protein stability index observed: 2.96

Sample Q15N ; protein stability index observed: 3.03

Sample I12L ; protein stability index observed: 3.06

Sample G5S ; protein stability index observed: 3.01
